Target: PDE2A (Homo sapiens)
Construct: made in house; host or cells: SF21 insect cells (baculovirus)
Sequence (O00408 whole entry): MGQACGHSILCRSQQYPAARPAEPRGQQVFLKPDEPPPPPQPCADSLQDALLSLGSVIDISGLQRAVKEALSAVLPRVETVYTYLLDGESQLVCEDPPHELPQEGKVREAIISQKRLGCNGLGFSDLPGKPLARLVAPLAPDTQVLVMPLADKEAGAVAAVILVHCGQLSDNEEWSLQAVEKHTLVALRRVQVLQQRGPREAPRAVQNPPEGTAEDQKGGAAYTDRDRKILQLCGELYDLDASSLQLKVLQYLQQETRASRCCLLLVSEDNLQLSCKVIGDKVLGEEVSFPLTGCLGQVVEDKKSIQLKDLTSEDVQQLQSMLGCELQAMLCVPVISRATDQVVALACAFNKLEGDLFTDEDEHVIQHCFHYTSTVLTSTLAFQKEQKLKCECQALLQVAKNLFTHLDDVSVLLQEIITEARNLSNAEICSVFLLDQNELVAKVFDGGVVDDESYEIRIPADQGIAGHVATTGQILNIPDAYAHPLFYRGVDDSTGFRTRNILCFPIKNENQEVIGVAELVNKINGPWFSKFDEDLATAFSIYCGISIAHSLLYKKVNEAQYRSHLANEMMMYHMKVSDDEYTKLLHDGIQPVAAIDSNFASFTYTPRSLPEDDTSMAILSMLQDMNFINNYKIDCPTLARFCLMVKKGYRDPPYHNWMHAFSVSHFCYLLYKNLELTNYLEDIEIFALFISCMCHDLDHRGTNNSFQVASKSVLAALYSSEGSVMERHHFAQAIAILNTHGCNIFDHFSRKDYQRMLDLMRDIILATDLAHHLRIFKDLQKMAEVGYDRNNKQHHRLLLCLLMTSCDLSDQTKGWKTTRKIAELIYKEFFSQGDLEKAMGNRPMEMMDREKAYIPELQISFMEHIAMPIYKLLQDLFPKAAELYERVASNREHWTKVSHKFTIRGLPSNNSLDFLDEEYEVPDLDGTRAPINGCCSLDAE
Experiment: Inhibition of recombinant PDE2A (expressed in baculovirus/SF21-cells), [3H]-cAMP SPA
Type: biochemical
Protocol: Inhibition of Recombinant PDE2A (Expressed in Baculovirus/SF21-Cells) PDE2A (NM002599) was cloned and the gene was inserted in the baculovirus and the enzyme-protein expressed in SF21-cells. The enzyme was isolated from these cells by harvesting the cells by an centrifugation at 200 g to collect the cells. […] PDE2A activity was determined in a one step procedure in microtiterplates. […] One hour later the mixture was measured in a liquid scintillation counter for microtiterplates (Microbeta Trilux). […]
reported.property: IC50 (nM)

Some solved entries appear below for comparison.
compound: COc1cc(O)cc2c1nnc1c(C)nc(-c3cnccc3C)n12
IC50 [nM]: 451
//
compound: COc1cc(F)c2nnc3c(C)nc(-c4cc(C)ccc4F)n3c2c1
IC50 [nM]: 13.9
//
compound: COc1cc(F)cc2c1nnc1c(C)nc(-c3ccc(F)cc3C)n12
IC50 [nM]: 609
//
compound: COc1cc(F)c2nnc3c(C)nc(-c4cc(OC(F)(F)F)ccc4Cl)n3c2c1
IC50 [nM]: 16.5

A. CCCCOc1ccc(F)c(-c2nc(C)c3nnc4ccc(F)cc4n23)c1
B. COc1ccc(F)c(-c2nc(C)c3nnc4c(F)cc(OC)cc4n23)c1
C. COc1ccc2c(c1)nnc1c(C)nc(-c3cc(Cl)ccc3Cl)n12
Output the entries ranked by IC50 from maximum down to minimum. When ranking, write the labels in the order the request describes.
A, C, B
(A: 37.7 nM, C: 17.8 nM, B: 9.3 nM)

a. COc1cc(F)cc2c1nnc1c(C)nc(-c3c(C)n[nH]c3C)n12
b. CCCOc1ccc(F)c(-c2ccc3nnc4c(C)nc(-c5cc(OCCC)ccc5F)n4c3c2)c1
Return label of the item with the larger IC50. Candidates: a , b . Provide the label of your selected option as the answer.
a
